Quick reference: Cmax of the listed items.
test: Cmax in rat at 2 mg/kg, po; assay type: ADME, organism-based; design: dose 2 mg/kg, route oral; details: in vivo
metric: Cmax (nM)

C[C@H](NC(=O)C(C)(C)Oc1ccc(C(F)(F)F)cn1)[C@@H](Cc1ccc(Cl)cc1)c1ccccc1 1200
C[C@H](NC(=O)C(C)(C)Oc1ccccc1)[C@@H](Cc1ccc(Cl)cc1)c1ccccc1 180
C[C@H](NC(=O)C(C)(C)Oc1ccc(C(F)(F)F)cn1)[C@@H](Cc1ccc(Cl)cc1)c1cccc(C#N)c1 490
C[C@H](NC(=O)C(C)(C)Oc1ccccn1)[C@@H](Cc1ccc(Cl)cc1)c1ccccc1 440
C[C@H](NC(=O)C(C)(C)Oc1cc(F)cc(F)c1)[C@@H](Cc1ccc(Cl)cc1)c1ccccc1 300
